Target protein (sequence): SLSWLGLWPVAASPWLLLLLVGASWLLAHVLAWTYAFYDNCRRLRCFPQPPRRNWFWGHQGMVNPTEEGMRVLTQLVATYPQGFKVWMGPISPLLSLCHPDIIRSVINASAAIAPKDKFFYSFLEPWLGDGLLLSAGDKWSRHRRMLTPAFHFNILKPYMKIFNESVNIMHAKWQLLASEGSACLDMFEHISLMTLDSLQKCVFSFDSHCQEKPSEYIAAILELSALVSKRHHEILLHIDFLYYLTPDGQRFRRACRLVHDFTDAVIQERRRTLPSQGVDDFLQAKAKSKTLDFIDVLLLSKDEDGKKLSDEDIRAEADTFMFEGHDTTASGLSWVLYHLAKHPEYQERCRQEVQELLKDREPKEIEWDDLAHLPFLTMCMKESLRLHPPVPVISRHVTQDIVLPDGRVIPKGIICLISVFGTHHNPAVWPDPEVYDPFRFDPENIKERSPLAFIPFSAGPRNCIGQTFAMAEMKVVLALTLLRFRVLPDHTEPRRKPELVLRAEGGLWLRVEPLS
Measured Attribute: IC50 (nM)

Compound | Result
CCS(=O)(=O)c1cccc(COc2ccc(-c3ccn[nH]3)nc2)c1 [Example 18-6] | 93

A. N#Cc1ccc(COc2ccc(-c3ccn[nH]3)nc2)cc1 [54-20]
B. CS(=O)(=O)N1CCC[C@H](COc2ccc(-c3ccn[nH]3)nc2)C1 [Example 10-7]
Req: Pick one, A or B : lowest reported IC50. Pick one and reply with its label.
Resp: A
(A: 6.5 nM, B: 730 nM)

A. CC(=O)N1CCC[C@H](COc2ccc(-c3ccn[nH]3)nc2)C1 [Example 1-11]
B. CCc1cccc(COc2ccc(-c3ccn[nH]3)nc2)c1 [Reference Example 53-2]
C. CS(=O)(=O)N1CCC[C@H](COc2ccc(-c3cn[nH]c3)nc2)C1 [Example 46-3]
D. Cc1ccc(COc2ccc(-c3ccn[nH]3)nc2)cc1 [Reference Example 54-2]
E. CN(C)S(=O)(=O)N1CC(COc2ccc(-c3ccn[nH]3)nc2)C1 [Example 1-25]
Req: Rank the 5 compounds: largest IC50 first, smallest last. # format: label list in the order the request specifies
Resp: C, E, A, B, D

a. CN(C)C(=O)N1CCC(CCOc2ccc(-c3ccn[nH]3)nc2)CC1 [Example 9-2]
b. O=C(CC1CCOCC1)N1CCC[C@@H](COc2ccc(-c3ccn[nH]3)nc2)C1 [Example 3-33]
c. CS(=O)(=O)c1ccccc1CCOc1ccc(-c2cn[nH]c2)nc1 [Example 39-2]
d. CC(=O)NCC12CC(COc3ccc(-c4ccn[nH]4)nc3)(C1)C2 [Example 21-1]
e. COc1ccc(COc2ccc(-c3ccn[nH]3)nc2)cc1S(C)(=O)=O [Example 25-10]
Req: Sort (5 compounds) by IC50: min first. # format: label list in the order the request specifies
Resp: e, a, d, b, c

P. O=C(N1CCC(COc2ccc(-c3ccn[nH]3)nc2)CC1)C1(O)CC1 [Example 2-10]
Q. CC(=O)N1CC(CCCOc2ccc(-c3ccn[nH]3)nc2)C1 [Example 16-3]
Req: Return label of the item with the larger IC50. Candidates: P , Q . Pick one and reply with its label.
Resp: P
(P: 400 nM, Q: 15 nM)

I. CC(=O)N1CCC[C@@H](Oc2ccc(-c3ccn[nH]3)nc2)C1 [Example 13-11]
II. O=C([C@H]1CC[C@H](O)CC1)N1CCC[C@@H](COc2ccc(-c3ccn[nH]3)nc2)C1 [Example 3-2]
III. O=S1(=O)CCCC(COc2ccc(-c3cn[nH]c3)nc2)C1 (stereo not drawn) [Example 43-4]
Req: Sort (3 compounds) by IC50: min first. # format: label list in the order the request specifies
Resp: II, III, I
(II: 2000 nM, III: 5400 nM, I: 12000 nM)
